Consider the following compounds and their measured AC50 readings.
Target: PKR R510Q (Homo sapiens, UniProt P30613, R510Q)
Sequence (P30613 whole entry R510Q): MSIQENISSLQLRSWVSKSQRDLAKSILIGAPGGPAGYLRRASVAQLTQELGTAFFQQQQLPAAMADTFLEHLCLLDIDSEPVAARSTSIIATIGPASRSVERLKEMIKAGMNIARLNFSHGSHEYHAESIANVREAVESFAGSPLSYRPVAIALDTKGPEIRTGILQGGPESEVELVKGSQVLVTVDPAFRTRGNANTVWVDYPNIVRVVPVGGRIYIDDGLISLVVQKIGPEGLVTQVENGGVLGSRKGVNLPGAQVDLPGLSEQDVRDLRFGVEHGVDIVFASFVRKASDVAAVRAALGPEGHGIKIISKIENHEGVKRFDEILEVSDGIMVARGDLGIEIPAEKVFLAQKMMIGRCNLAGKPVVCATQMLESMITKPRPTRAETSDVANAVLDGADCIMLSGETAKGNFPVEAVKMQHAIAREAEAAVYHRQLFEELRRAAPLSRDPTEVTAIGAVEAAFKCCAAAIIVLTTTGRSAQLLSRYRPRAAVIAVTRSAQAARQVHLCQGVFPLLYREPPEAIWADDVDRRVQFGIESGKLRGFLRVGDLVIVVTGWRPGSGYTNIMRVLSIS
Experiment: PKR Mutant Assay, AC50 against PKR R510Q
Type: biochemical
Conditions: mutant PKR R510Q enzyme
Procedure: • PKR or PKR mutant enzyme solution was diluted in assay buffer. • 2 μL of test compound was added into wells first, and then 180 μL reaction mix was added. • Reactions mixture with test compound was assembled except for ADP, and plates were stored for 60 minutes at room temperature. • 20 uL ADP was added to start reaction at room temperature and reaction progress was measured as changes in absorbance at 340 nm wavelength at room temperature. […]

Here's what some known entries look like.
compound: Cc1ccccc1C1(O)CCN(C(=O)c2ccc(NS(=O)(=O)c3cccc4cccnc34)cc2)CC1
test.system: PKR R510Q (Homo sapiens, UniProt P30613, R510Q)
endpoint: AC50
recorded.value: < 100 nM

compound: O=C(c1ccc(NS(=O)(=O)c2cccc3cccnc23)cc1)N1CCC(O)(Cc2cccc(F)c2F)CC1
test.system: PKR R510Q (Homo sapiens, UniProt P30613, R510Q)
endpoint: AC50
recorded.value: 101 to 1000 nM

compound: O=C(c1ccc(NS(=O)(=O)c2cccc3cccnc23)cc1)N1CCC(O)(c2cccc(F)c2Cl)CC1
test.system: PKR R510Q (Homo sapiens, UniProt P30613, R510Q)
endpoint: AC50
recorded.value: < 100 nM

Exercise: What AC50 appears in the records for this compound with PKR R510Q (Homo sapiens, UniProt P30613, R510Q)? O=C(c1ccc(NS(=O)(=O)c2cccc3cccnc23)c(F)c1)N1CCC(O)(Cc2ccccc2)CC1
Solution: 101 to 1000 nM

Exercise: And for CC(C)(C)CC1(O)CCN(C(=O)c2ccc(NS(=O)(=O)c3ccc(F)c4cccnc34)cc2)CC1 ?
Solution: < 100 nM

Exercise: And for Cc1nc2c(S(=O)(=O)Nc3ccc(C(=O)N4CCC(O)(CC(C)C)CC4)cc3)cccc2o1 ?
Solution: 101 to 1000 nM

Exercise: And for O=C(c1ccc(NS(=O)(=O)c2ccc(F)c3nccnc23)cc1)N1CCC(O)(c2ccccc2Cl)CC1 ?
Solution: 101 to 1000 nM

Exercise: And for O=C(c1ccc(NS(=O)(=O)c2cccc3cccnc23)c(OC(F)F)c1)N1CCC(O)(c2ccccc2Cl)CC1 ?
Solution: 101 to 1000 nM

Exercise: And for O=C(c1ccc(NS(=O)(=O)c2cccc3cc(F)cnc23)cc1)N1CCC(O)(c2ccccc2)CC1 ?
Solution: 101 to 1000 nM

Exercise: And for N#Cc1cc(NS(=O)(=O)c2cccc3cccnc23)ccc1C(=O)N1CCC(O)(c2ccccc2Cl)CC1 ?
Solution: 101 to 1000 nM

Exercise: And for O=C(c1ccc(NS(=O)(=O)c2cccc3c2OCCC3)cc1)N1CCC(O)(c2ccccc2Cl)CC1 ?
Solution: < 100 nM

Exercise: And for N#Cc1ccc(C2(O)CCN(C(=O)c3ccc(NS(=O)(=O)c4cccc5cccnc45)cc3)CC2)cc1 ?
Solution: 1010 to 10000 nM

Exercise: And for COc1ccccc1CC1(O)CCN(C(=O)c2ccc(NS(=O)(=O)c3cccc4cccnc34)cc2)CC1 ?
Solution: < 100 nM

Exercise: And for Cc1nc2c(S(=O)(=O)Nc3ccc(C(=O)N4CCC(O)(c5ccccc5Cl)CC4)cc3)cccc2o1 ?
Solution: 101 to 1000 nM

Exercise: And for CC(C)CC1(O)CCN(C(=O)c2ccc(NS(=O)(=O)c3cccc4cccnc34)c(C(F)F)c2)CC1 ?
Solution: 101 to 1000 nM

Exercise: And for O=C(c1ccc(NS(=O)(=O)c2cccc3c(O)ncnc23)cc1)N1CCC(O)(CCC(F)(F)F)CC1 ?
Solution: 101 to 1000 nM

Exercise: And for O=C(c1ccc(NS(=O)(=O)c2cccc3cccnc23)cc1)N1CCC(O)(Cc2ccccn2)CC1 ?
Solution: 101 to 1000 nM

Exercise: And for CC(C)CC1(O)CCN(C(=O)c2ccc(NS(=O)(=O)c3cccc4csnc34)cc2)CC1 [Compound 376] ?
Solution: 1010 to 10000 nM

Exercise: And for CC(C)CC1(O)CCN(C(=O)c2ccc(NS(=O)(=O)c3cccc4cncnc34)cc2)CC1 ?
Solution: 1010 to 10000 nM

Exercise: And for O=C(c1ccc(NS(=O)(=O)c2cccc3ccoc23)cc1)N1CCC(O)(c2ccccc2Cl)CC1 ?
Solution: 101 to 1000 nM

Exercise: And for COCCC1(O)CCN(C(=O)c2ccc(NS(=O)(=O)c3cccc4cccnc34)cc2)CC1 ?
Solution: 101 to 1000 nM

Exercise: And for O=C(c1ccc(NS(=O)(=O)c2cccc3cccnc23)cc1)N1CCC(C(=O)O)(c2ccccc2)CC1 ?
Solution: > 10000 nM

Exercise: And for CC(CC1(O)CCN(C(=O)c2ccc(NS(=O)(=O)c3cccc4sc(N)nc34)cc2)CC1)C(F)(F)F (stereo not drawn) ?
Solution: < 100 nM
